B1: glmS ribozyme (parent)
chain: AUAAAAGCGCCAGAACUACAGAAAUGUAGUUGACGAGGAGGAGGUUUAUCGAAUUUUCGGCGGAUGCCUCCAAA

variants of: B1; experiment: self-cleavage kobs at 10000 uM GlcN6P; higher = faster cleavage; RNA array; settings: with glucosamine-6-phosphate
Variants at the floor of the assay were thinned out.
value.type: self-cleavage kobs at 10000 uM GlcN6P (s⁻¹)
Answers are plain numbers, in s⁻¹.

// input: 5 variants below; output: self-cleavage kobs at 10000 uM GlcN6P for each
1. G32C C58A
2. A12U A14U G32U
3. G66A C71A
4. U30C U47G
5. A52U G66C

[0.000333, "8.48e-05", 0.00424, "2.83e-05", "4.08e-05"]

Okay, here is my list. What is self-cleavage kobs at 10000 uM GlcN6P for each of these?
1. G26U U69A
2. G29U U65C
3. U46G C67U
4. A64G U69A
5. U30G U46C
6. U31A U45C
7. A48U U54G
8. A42G U54G

["6.81e-05", "5.46e-05", 0.00457, "7.42e-05", 0.000443, 0.00116, 0.000397, 0.0409]
